# tgt: T1, recombinant human NMES1 protein (Normal Mucosa of Esophagus Specific 1) (human, UniProt Q9C002 1-83, limits assumed)
# T1 construct: also called rhNMES1; recombinant NMES1 protein
# test summary: BLI (Octet), antibody on protein A biosensors, recombinant NMES1 0-900 nM, 1:1 fit
measurement kind: Kd (nM)
Hi! Could you send only the number? It should be in nM, unit omitted.

binder="NMES-3 anti-NMES1 monoclonal antibody (antibody, IgG1, V domains shown, also called NM-3; NMES1-3) VH: EVQLLQSGGGVVRPGGSLRLSCAASGFTFDDYGMSWVRQAPGKGLEWVSGINWNGGSTGYADSVKGRFTISRDNAKNSLYLQMNSLRAEDTALYYCARASMVRGVYAFDIWGQGTMVIVSS VL: DVQMTQSPSSLSASIGDRVTITCRASQSIGSYLNWYQQRPGKAPKLLIYSASSLQSGVPSRFSGSGSRSDFTLTIASLQPEDFATYYCQQSYSGPYTFGQGTKVDIK" unit_descriptor=nM observed_result=56
binder="NMES-5 anti-NMES1 monoclonal antibody (antibody, IgG1, V domains shown, also called NM-5; NMES1-5) VH: QVQLVQSGAEVKKPGASVKVSCKASGYTFTSYGISWVRQAPGQGLEWMGWISAYNGNTNYAQKLQGRVTMTTDTSTSTAYMELRSLRSDDTAVYYCARATRGNAFDIWGQGTMVSVSS VL: QSALTQPASVSGSPGQSITISCTGTSSDVGAYNYVSWYQQHPGKAPKLMIYDVSNRPSGVSNRFSGSKSGNTASLTISGLQAEDEADYYCSSYTRSTTVVFGGGTKVTVL" unit_descriptor=nM observed_result=27.9
binder="NMES-1 anti-NMES1 monoclonal antibody (antibody, V domains shown, also called NM-1; NMES1-1) VH: QVQLVQSGGGVVQPGRSLRLSCAASGFTFSSYAMHWVRQAPGKGLEWVAVISYDGSNKYYADSVKGRFTISRDNSKNTLYLQMNSLRAEDTAVYYCARLSRFGDESLKDPDYWGQGTLVTVSS VL: DIVMTQSPLSLPVTLGQPASISCRSSQSLVHSDGNTYLNWFQQRPGQSPRRLIYKVSNRDSGVPDRFSGSGSGTDFTLKISRVEAEDVGVYYCMQGAHWPPTFGPGTKLEIK" unit_descriptor=nM observed_result=15.5
binder="NMES-10 anti-NMES1 monoclonal antibody (antibody, IgG1, V domains shown, also called NM-10; NMES1-10) VH: QVQLVQSGAEVKKPGASVKVSCKASGYTFTSYGISWVRQAPGQGLEWMGWISAYNGNTNYAQKLQGRVTMTTDTSTSTAYMELRSLRSDDTAVYYCARATFGNAFDIWGQGTTVTVSS VL: QSALTQPASVSGSPGQSITISCTGTSSDVGGYNYVSWYQQHPGKAPKLMIYDVSNRPSGVSNRFSGSKSGNTASLTISGLQAEDEADYYCSSYTSSSTLVVFGGGTKVTVL" unit_descriptor=nM observed_result=89.9
binder="NMES-4 anti-NMES1 monoclonal antibody (antibody, IgG1, V domains shown, also called NM-4; NMES1-4) VH: EVQLVQSGGEVKKPGSSVKVSCKASGGTFSTYAISWVRQAPGQGLEWMGGIIPIFGTTNYAQKFQGRVTITADRSTSTAYMELSSLRSEDTAVYYCARVSELGDYYAMDVWGQGTTVTVSS VL: DIQMTQSPSSLSASVGDRVTITCRASQGIASALAWYQQKPGKAPKLLIYDASNLESGVPSRFSGSGSGTDFTLTISSLQPEDFATYYCQQAHSFPLTFGGGTKLEIK" unit_descriptor=nM observed_result=17.1

Param item = NMES-6 anti-NMES1 monoclonal antibody (antibody, IgG1, V domains shown, also called NM-6; NMES1-6) VH: QVQLVQSGAEVKKPGASVKVSCKASGYTFTSYGISWVRQAPGQGLEWMGWISAYNGNTNYAQKLQGRVTMTTDTSTSTAYMELRSLRSDDTAVYYCARAVGQLAFDYWGQGTLVTVSS VL: QSALNQPPSASGSPGQSVTISCTGTSSDVGGYNYVSWYQQHPGKAPKLMIYEVSKRPSGVPDRFSGSKSGNTASLTVSGLQAEDEADYYCSSYAGSNNLVFGGGTKVTVL ; retrieve measured Kd.
19.5

Param item = NMES-7 anti-NMES1 monoclonal antibody (antibody, IgG1, V domains shown, also called NM-7; NMES1-7) VH: EVQLVQSGAEVKKPGASVKVSCKASGYTFNRDAISWVRQAPGQGLEWMGWISGYNGNTYYAHKVLGRATMTTDTSTNTAYMELRSLTSDDTAMYYCARVGLQPDTTMDHWGQGTLVTVSS VL: DIQMTQSPSSLSASVGDRVTITCRASQDIRNDLAWYQQKPGKAPKLLIYTASSLQTGVPSRFSGSGSGTDFTLSISSLQPEDFATYYCLQDYKYPLTFGGGTKLEIK ; retrieve measured Kd.
39.8

Value source: patent US20210371508A1
